ASSAYED SYSTEM: CIB1 and αIIb interaction (CIB1-GST : F-αIIb peptide) (Homo sapiens)
Construct: made in house; host or cells: BL-21 plus RIL cells (E. coli)
Sequence (Q99828 whole entry): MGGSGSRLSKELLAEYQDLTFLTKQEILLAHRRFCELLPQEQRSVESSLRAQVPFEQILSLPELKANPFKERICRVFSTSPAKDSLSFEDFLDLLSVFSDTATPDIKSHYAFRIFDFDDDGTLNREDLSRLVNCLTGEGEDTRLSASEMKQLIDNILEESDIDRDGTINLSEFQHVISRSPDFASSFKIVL
MEASUREMENT PROTOCOL: FP assay, 1536-well qHTS format (primary and confirmatory screen)
Type: binding
CONDITIONS: qHTS primary screen hits, Table S2; negative = inhibition
I'd be grateful if you could share measured Efficacy (%) for these entries.
Give bare numbers, in %.

Completed entries (count: 8):
| CHEMICAL STRING | ENDPOINT UNIT | Efficacy (%) |
| --- | --- | --- |
| O=C(O)C(F)(F)F.O=C1Nc2ccccc2/C1=N/NC(=S)Nc1ccccc1 | % | -27 |
| CCN1CCN(c2cccc(Nc3nn4c(=O)c5ccccc5nc4s3)c2)CC1.Cl | % | -24 |
| Nc1c(C(=O)Nc2ccc(F)cc2)sc2nc(-c3cccs3)ccc12.O=C(O)C(F)(F)F | % | -31 |
| CN(C)CCc1c[nH]c2cccc(O)c12 | % | -105 |
| CC/C(=C(/CC)c1ccc(O)cc1)c1ccc(O)cc1 | % | -29 |
| Nc1ccccc1N | % | -77 |
| Oc1ccc(-c2nnn[nH]2)c2cccnc12 | % | -31 |
| O=C(O)C(F)(F)F.O=C(c1cccs1)c1no[n+]([O-])c1C(=O)c1cccs1 | % | -48 |

Inquiry: Look up Efficacy (%): O=C(O)C(F)(F)F.Oc1cc(NCCN2CCOCC2)cc2cccnc12
Reply text: -45

---

I'd be grateful if you could share measured pIC50 for these entries.
ASSAYED SYSTEM: CIB1 and αIIb interaction (CIB1-GST : F-αIIb peptide) (Homo sapiens)
Construct: made in house; host or cells: BL-21 plus RIL cells (E. coli)
MEASUREMENT PROTOCOL: FP assay, 1536-well qHTS format (primary and confirmatory screen)
Format: binding
CONDITIONS: qHTS primary screen hits, Table S2; read-out: IC50
One number for each entry, as −log10 of the molar value.

| MOLECULE | pIC50 |
| --- | --- |
| O=C(O)CCCC[P+](c1ccccc1)(c1ccccc1)c1ccccc1.[Br-] [NCGC00261975-01] | 4.25 |
| O=C(O)C(F)(F)F.O=C1CC(c2ccc(F)cc2Cl)c2sc(N3CCOCC3)nc2N1 (stereo not shown) [NCGC00488260-02] | 4.30 |
| COc1ccc(OC)c(-n2c3c(cc(-c4nnn(-c5ccc(Cl)cc5)n4)c2=O)C(=O)CC(C)(C)C3)c1.O=C(O)C(F)(F)F [NCGC00347300-01] | 4.05 |
| COC(=O)c1ccc2c(c1)S(=O)(=O)N=C2Sc1cc(C)ccc1C [NCGC00238687-01] | 4.40 |
| C=C1c2cccc(O)c2C(O)=C2C(=O)[C@]3(O)C(O)=C(C(N)=O)C(=O)[C@@H](N(C)C)[C@@H]3[C@@H](O)[C@H]12.Cl [NCGC00179358-04] | 4.25 |

# batch: return pIC50 for each of the 2 molecules below
1. N#Cc1ccc(S(=O)(=O)Nc2cnccc2C(=O)Nc2nc(-c3ccccc3)cs2)cc1.O=C(O)C(F)(F)F [NCGC00344937-01]
2. O=C(Nc1nc(-c2ccccc2)cs1)c1ccncc1NS(=O)(=O)c1ccccc1Cl.O=C(O)C(F)(F)F [NCGC00344943-02]

Reply text:
4.10
4.19
